Values were extracted from PubChem BioAssay (NCI).

Can you tell me log10(TGI) for the items I'm about to list?
Test system: A549 NSCLC
Experiment: NCI tumour cell line growth inhibition, 48 h
Values reflect log10 of reported TGI (µM).

stdin: // log10(TGI) lookup, key: COc1ccc2c(c1)CC[C@@H]1[C@@H]2CC[C@]2(C)/C(=N/OCCN3CCCCC3)CC[C@@H]12
stdout: 1.30

stdin: Give its log10(TGI) value. Item: CC[C@@]1(OC(=O)CCC(=O)O)C(=O)OCc2c1cc1n(c2=O)Cc2cc3ccccc3nc2-1
stdout: 0.74

stdin: Look up log10(TGI): CCN(CC)CCNc1ccc(N=Nc2ccc(S(N)(=O)=O)cc2)c2ccccc12
stdout: 1.61

stdin: Name the reported log10(TGI) value associated with the compound CC(=O)C(=C(I)I)c1ccccc1
stdout: 1.75

stdin: Need log10(TGI), item COc1cccc(C2c3cc4c(cc3OC(N3CCOCC3)C2C)OCO4)c1O (configuration not stated)
stdout: 1.82

stdin: Give the measured log10(TGI) of ClCCn1cnc2c(SCc3ccccc3)ncnc21 .
stdout: 1.88

stdin: Look at this compound and give its reported log10(TGI). CN(C)CCNc1cccc2sc3ccc(O)cc3c(=O)c12
stdout: 0.74

stdin: For the compound shown here, COC1C(O)=C2C(=O)OC(C)(O)/C=C/C=C\C=C/C=C/C(c3ccccc3)NC(=O)/C=C/C=C/C=C/C=C/C2(C)C1O (configuration not stated) , give the reported log10(TGI).
stdout: -1.60

stdin: Entry Cn1c(N/N=C/c2ccc(Cl)cc2)nc(-c2ccc(Cl)cc2)c(C#N)c1=O has what log10(TGI)?
stdout: 1.59

* * *

Assignment: determine reported GI50 for the given molecules.

stdin: What is its GI50 for 786-0 renal? Entry: CC1=CC[C@@H]2C(C)(C)[C@@H](O)CC[C@@]2(C)[C@@H]1COc1ccc2ccc(=O)oc2c1
stdout: 13000 nM

stdin: Any idea what GI50 came out for O=[N+]([O-])/C=C\c1ccc2c(c1)OCO2 on 786-0 renal?
stdout: 1840 nM

stdin: // map Cn1nnnc1[N-]Cc1ccccc1.[Au+].c1ccc([PH+](c2ccccc2)c2ccccc2)cc1 to recorded GI50 (system: 786-0 renal)
stdout: 1710 nM

stdin: GET /values?readout=GI50&system=786-0 renal&item= O=Nc1c2cccnc2n2nnc3ccc(Cl)cc3c12
stdout: 1250 nM

stdin: # returns recorded GI50 (system: 786-0 renal) for O=C1C=C(c2cc(Br)c(O)c(Br)c2)/C(=C/c2cc(Br)c(O)c(Br)c2)O1
stdout: 35800 nM

* * *

Test system: NCI-H226 lung
Experiment: NCI tumour cell line growth inhibition, 48 h
Exercise: for every item that follows, state its recorded TGI.
Give your result in µM as a bare value.

stdin: Would you mind telling me what TGI value was observed for CC(=O)O/C(C)=C\C(=O)O/N=C(\N)c1ccc(C)cc1 ?
stdout: 92.9

stdin: What value of measured TGI is listed for CC(Nc1cc(Cl)cc(Cl)c1)c1ccncc1 (configuration not stated) ?
stdout: 25

stdin: Look up TGI: CC[C@@]1(OC(=O)CCC(=O)O)C(=O)OCc2c1cc1n(c2=O)Cc2cc3ccccc3nc2-1
stdout: 3.13

stdin: Please give the measured TGI for this molecule: NC1CCC(c2cc3ccccc3s2)(N2CCCCC2)CC1 (configuration not stated)
stdout: 43.7

stdin: // lookup TGI for Cc1nn(-c2ccccc2)c(C)c1/C=N/NC(=O)c1sc(=S)n(-c2ccccc2)c1N
stdout: 79.1

stdin: Return reported TGI; argument: COc1ccc(-c2cn3c(n2)sc2cc(C)ccc23)cc1
stdout: 62.2

stdin: Which TGI reading was recorded for the molecule CCc1cccc(C)c1NC(=O)CC1Sc2ccccc2NC1=O (configuration not stated) ?
stdout: 64.6

stdin: Requested read-out: TGI. Entry: CN(C)Cc1cc(N=Nc2ccc(Cl)c(Cl)c2)ccc1O
stdout: 40.7

stdin: Quick one: TGI for CCc1ccc(C2=C(O)C(=O)C(c3ccc(CC)cc3)=C(O)C2=O)cc1 ?
stdout: 7.34

stdin: Entry O=C1CSC2(CCN(CCCN3c4ccccc4Sc4ccc(Cl)cc43)CC2)N1 has what TGI?
stdout: 40.7

stdin: Entry under review: CCCCCCCCCCCC(=O)C1=C(O)C(O)CCC1=O (configuration not stated) . Reported TGI?
stdout: 70.3

stdin: I have this molecule here, O=C1CC(O)c2c(Cl)sc(Cl)c21 (configuration not stated) , and I need its recorded TGI.
stdout: 36.6

stdin: What value of measured TGI is listed for COc1ccc2c(c1)CC[C@@H]1[C@@H]2CC[C@]2(C)/C(=N/OCCN3CCCCC3)CC[C@@H]12 ?
stdout: 18.7

stdin: May I ask what TGI has been recorded for CC(=O)C(=C(I)I)c1ccccc1 ?
stdout: 27.3

stdin: Recorded TGI for COc1cccc(-c2cc(=O)c3cc(C)cnc3[nH]2)c1 , please?
stdout: 0.339

stdin: Fill blank: measured TGI of the molecule OCC1OC(N2C=C(c3nc4ccccc4s3)C3C=CC=CC32)C(O)C1O (configuration not stated) is ____.
stdout: 25.5

stdin: Sample CC1=C(N2CC2)C(=O)c2nc3n(c2C1=O)CCC3O (configuration not stated) — what was its TGI?
stdout: 2.14

stdin: Which TGI reading was recorded for the molecule COc1cc2[nH]c(-c3ccccc3)cc(=O)c2cc1OC ?
stdout: 53.6

stdin: // lookup TGI for O=C(/C=C/c1ccc([N+](=O)[O-])o1)NNC(=O)c1cc2ccccc2cc1O
stdout: 34.1
